Observed AC50 for Cytochrome P450 2C9 (Homo sapiens), reported per entry below.

- Molecule: "CCN1CCCC1CNC(=O)C1c2cc(OC)c(OC)cc2C(=O)N(C)C1c1cccnc1 (stereo not given)"
  AC50: "1.78 µM (inconclusive)"
- Molecule: "Cc1ccccc1OCC(O)Cn1c(NCc2ccccc2)nc2c1c(=O)[nH]c(=O)n2C (stereo not given)"
  AC50: "5.62 µM (inconclusive)"
- Molecule: "CS(=O)(=O)Nc1cccc(-c2nc(NCc3cccs3)c3ccccc3n2)c1"
  AC50: "1.26 µM (inconclusive)"
- Molecule: "COc1cc(/C=C2/C(=N)N3C=CSC3=NC2=O)ccc1OCCCOc1c(C)cccc1C"
  AC50: "2 µM (inconclusive)"
- Molecule: "CC(=O)CSc1nnc(Cc2ccc([N+](=O)[O-])cc2)o1"
  AC50: "35.5 µM (inconclusive)"
- Molecule: "COc1ccc(-c2nsc3c(N4CCCCC4)ncnc23)cc1"
  AC50: "5.01 µM (inconclusive)"
- Molecule: "Cc1ccc(OC(=O)N2CCOCC2)cc1"
  AC50: "39.8 µM (inconclusive)"
- Molecule: "COC(=O)[C@@H]1[C@@H](O)[C@]2(O)c3ccccc3O[C@]2(c2ccccc2)[C@H]1c1ccccc1"
  AC50: "0.0794 µM (inconclusive)"
- Molecule: "O=c1c(-c2cc(F)cc(F)c2)nc2cnc(Oc3ccccc3)nc2n1C1CC1"
  AC50: "10 µM (inconclusive)"
- Molecule: "N#Cc1c(-c2ccccc2)cc(C2CC2)nc1SCC(=O)c1cccs1"
  AC50: "0.0447 µM (inconclusive)"

Numbers sourced from ChEMBL document CHEMBL1201862.
